# test-system: chymotrypsin (Bos taurus)
# assay-text: Protease inhibition assay: chymotrypsin
# Type: biochemical
# condition-set: concentration range 45.5 μM to 0.011 μM; read-out: Chymotrypsin (IC50 in μM)
measured-parameter: IC50

Quote IC50 reported for CC(C)=CCN(CCCCNC(=O)C1CC2CCC(O)CC2N1C(=O)C(Cc1ccccc1)NC(=O)C(O)Cc1ccc(O)cc1)C(=N)N (stereo not shown) [Aeruginosin KB676 (1), Aeruginosin KB676] please.
> 45.5 µM

---

Here, each record is paired with measured pIC50 data.
# test-system: chymotrypsin (Bos taurus, UniProt P00766)
# assay-text: Protease inhibition assay: chymotrypsin
# Format: biochemical
pIC50: −log10 of the molar value.

CCCC(=O)N[C@@H](CC(=O)O)C(=O)N[C@@H]1C(=O)N[C@@H](CCCNC(=N)N)C(=O)N[C@H]2CC[C@@H](O)N(C2=O)[C@@H](C(C)C)C(=O)N(C)[C@@H](Cc2ccccc2)C(=O)N[C@@H]([C@@H](C)CC)C(=O)O[C@@H]1C [Micropeptin KB928 (5), Micropeptin KB928] = < 4.34

Switching to the query record.
# return pIC50 for CCCC(=O)N[C@@H](CC(=O)OC)C(=O)N[C@@H]1C(=O)N[C@@H](CCCNC(=N)N)C(=O)N[C@H]2CC[C@@H](OC)N(C2=O)[C@@H](C(C)C)C(=O)N(C)[C@@H](Cc2ccccc2)C(=O)N[C@@H]([C@@H](C)CC)C(=O)O[C@@H]1C [Micropeptin KB956 (6), Micropeptin KB956] , test system: chymotrypsin (Bos taurus, UniProt P00766)
< 4.34
